- System: T1, 017-mut7 peptide (…)/HLA-A*02:01 complex on T2 cells (human)
- T1 construct: Alanine mutant at position 7
- Assay comment: flow cytometry, phage on peptide-loaded T2 cells
Readout name: MFI
Output spec: single numeric token, no unit.

Consider the binder EXT017-27 scFv phage clone (scFv, full-length scFv with His+HA tags; also called EXT017-27 phage; phage clone #27) scFv: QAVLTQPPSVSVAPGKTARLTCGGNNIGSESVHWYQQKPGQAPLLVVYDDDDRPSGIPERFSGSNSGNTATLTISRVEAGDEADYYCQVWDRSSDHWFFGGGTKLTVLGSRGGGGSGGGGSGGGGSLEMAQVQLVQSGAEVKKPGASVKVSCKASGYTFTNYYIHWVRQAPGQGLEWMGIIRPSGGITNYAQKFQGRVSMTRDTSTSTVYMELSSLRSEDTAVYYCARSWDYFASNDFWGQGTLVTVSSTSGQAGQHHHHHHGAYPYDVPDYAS and give its measured MFI.
96.3
